The reported numbers originate from patent US6410054B1.

# Test Details: Multiple dose study: plasma pharmacokinetics and urinary excretion
# Format: in vivo, humans
# Assay Conditions: male, human, plasma, oral, 1000 mg, eplerenone 1000 mg Dose; Single Dose
Property Name: AUC
Kindly report the value followed by its unit.

Quick note, AUC for COC(=O)C1CC2=CC(=O)CCC2(C)C23OC2CC2(C)C(CC[C@@]24CCC(=O)O4)C13 (stereo partly shown) [eplerenone] landed at 62100 ng·h/mL

###

# Test Details: Multiple dose study: plasma pharmacokinetics and urinary excretion
# Type: in vivo, humans
# Assay Conditions: male, human, plasma, oral, 1000 mg, eplerenone 1000 mg Dose; Single Dose
Property Name: Tmax (h)
Give bare numbers, in h.

Quick note, Tmax for COC(=O)C1CC2=CC(=O)CCC2(C)C23OC2CC2(C)C(CC[C@@]24CCC(=O)O4)C13 (stereo partly shown) [eplerenone] landed at 2

###

# Test Details: Single dose study: plasma pharmacokinetics of eplerenone, open lactone ring form, spironolactone
# Assay Conditions: male, human, plasma, po, 100 mg
Property Name: MRT (h)
Numbers only, in h.

Quick note, MRT for COC(=O)C1CC2=CC(=O)CCC2(C)C23OC2CC2(C)C(CC[C@@]24CCC(=O)O4)C13 (stereo partly shown) [eplerenone] landed at 4.9

###

# Test Details: Single dose study: plasma pharmacokinetics of eplerenone, open lactone ring form, spironolactone
# Assay Conditions: male, human, plasma, po, 1000 mg
Property Name: Tmax (h)
Give bare numbers, in h.

Quick note, Tmax for COC(=O)C1CC2=CC(=O)CCC2(C)C23OC2CC2(C)C(CC[C@@]24CCC(=O)O4)C13 (stereo partly shown) [eplerenone] landed at 2.5

###

# Test Details: ADME study of [14C]eplerenone oral solution: plasma, whole blood, saliva pharmacokinetics
# Assay type: in vivo, humans
# Assay Conditions: male, human, plasma; 100 mg oral solution of [14C]eplerenone; 72.0 hours after dosing
Property Name: concentration at 72 h (ng/mL)
One number for each entry, in ng/mL.

Quick note, concentration at 72 h for COC(=O)C1CC2=CC(=O)CCC2(C)C23OC2CC2(C)C(CC[C@@]24CCC(=O)O4)C13 (stereo partly shown) landed at 0

###

# Test Details: Single dose study: plasma pharmacokinetics of eplerenone, open lactone ring form, spironolactone
# Assay Conditions: male, human, plasma, po, 10 mg
Property Name: concentration at 96 h (ng/mL)
Give bare numbers, in ng/mL.

Quick note, concentration at 96 h for COC(=O)C1CC2=CC(=O)CCC2(C)C23OC2CC2(C)C(CC[C@@]24CCC(=O)O4)C13 (stereo partly shown) landed at 0

###

# Test Details: Effect of food study: plasma pharmacokinetics fasted vs high-fat breakfast
# Type: in vivo, humans
# Assay Conditions: male, human, plasma, oral, 100 mg, 100 mg eplerenone capsule; High Fat Breakfast; 2.0 hours after dosing
Property Name: concentration at 2 h (ng/mL)
Numbers only, in ng/mL.

Quick note, concentration at 2 h for COC(=O)C1CC2=CC(=O)CCC2(C)C23OC2CC2(C)C(CC[C@@]24CCC(=O)O4)C13 (stereo partly shown) landed at 712

###

# Test Details: Single dose study: plasma pharmacokinetics of eplerenone, open lactone ring form, spironolactone
# Assay Conditions: male, human, plasma, po, 10 mg
Property Name: concentration at 1 h (ng/mL)
Numbers only, in ng/mL.

Quick note, concentration at 1 h for COC(=O)C1CC2=CC(=O)CCC2(C)C23OC2CC2(C)C(CC[C@@]24CCC(=O)O4)C13 (stereo partly shown) landed at 177
